Every entry's value here was drawn from ChEMBL document CHEMBL3988442.

System: Wolbachia pipientis
assay.overview: Anti-Wolbachia Cell-Based Screen
Format: functional
Parameters: scale not given: in the data most compounds retested in dose-response had high values
condition.notes: 5 µM
The campaign covered roughly 48,000 compounds. About 13,000 (27%) showed an effect of 50% or more. Some of the results follow.
result.type: Percent Effect (%)
Please respond with the number in % and leave the unit unwritten.

>>> df
                                   compound     result_type  value_reported
0  CC(C)c1nccn1-c1cccc(C2CCCN(S(=O)(=O)N(C)C)C2)n1 (centres undefined)  Percent Effect           123.6

What value of measured Percent Effect is listed for COc1ccc(C)cc1CC(=O)Nc1cc(C)n[nH]1 ? 4.97

// returns reported Percent Effect for input CN(C)C(=O)CN(C)C(=O)c1cnc(Cc2ccc(F)cc2)s1 -0.8881

Dear colleague, I am looking for the recorded Percent Effect of the following compound: Fc1ccc2[nH]c([C@H]3CCN(C4CCOCC4)C3)nc2c1 -0.03029

Recorded Percent Effect of CCC(C)NC(=O)CS(=O)(=O)Cc1cc(Cl)ccc1OC (centres undefined) , please. 28.04

Suppose we examine the compound CCCc1nc(CNC(=O)Cc2csc(C)n2)cs1 ; what Percent Effect value has been reported? -2.31

Which value of Percent Effect has been reported for NS(=O)(=O)N1CCC(C(=O)Nc2cccc(OC(F)F)c2)CC1 in the records? 23.74

Please give the measured Percent Effect for this compound: COc1ccc(C(N)=O)cc1NCc1noc(-c2ccsc2)n1 0.901

Would you kindly share the measured Percent Effect for CC(Cn1ccnc1)NC(=O)N(C)Cc1ccco1 (centres undefined) ? 7.542

---

Parameter Percent Effect: see the listing below.
Tested on: Wolbachia pipientis
assay.overview: Anti-Wolbachia Cell-Based Screen
Assay type: functional
Design: scale not given: in the data most compounds retested in dose-response had high values
condition.notes: 5 µM
Hit rate of the full screen: of about 48,000 compounds, about 13,000 (27%) showed an effect of 50% or more. The list shows a part of the results.
Note: unit % is implicit; provide only the numeric part.

>>> df
                                   compound     result_type  value_reported
0  Cc1cc2ccccc2n1CCC(=O)N1CCCC(O)(CN(C)C)CC1 (configuration not stated)  Percent Effect          -7.968
1  Cc1nc2c(c(=O)n1C)CCN(C(=O)CCc1ccccn1)CC2  Percent Effect          -4.884
2  Cc1cc(C(=O)N2C[C@@H]3COC[C@]3(c3nnc(C(C)C)o3)C2)on1  Percent Effect            3.18

Any idea what Percent Effect was measured for CN(CCOc1ccccc1)C(=O)Nc1cccn(C)c1=O ? -7.911

Using the record for Cc1cc2ccncc2n1CC1(O)CCN(C(=O)c2ccncc2)CC1 , report its Percent Effect. 105.6

Given the entry COc1ccccc1OCCCN(C)c1cc(C)nc(N)n1 , report its measured Percent Effect. -7.239

Give the measured Percent Effect of O=C(c1cnc(Nc2ccccc2)nc1)N1CCC(O)(CO)CC1 . -9.694

Data request, read-out Percent Effect, for Cc1cc(C(=O)N(C)CCCn2cccn2)nc(N)n1 99.09

Fill in: Percent Effect of O=C(c1cncc(N2CCC(O)(CO)CC2)n1)N1CCCC1 is ___ -6.183
